These entries and their values trace back to patent US12389911B2.

System: Two-spotted spider mite (Tetranychus urticae)
Assay: Acaricidal action on two-spotted spider mite (kidney bean leaf disk spray)
Type: in vivo
Details: 500 ppm, adult females, 25° C., two days after treatment
Quantity Name: acaricidal efficacy (corrected mortality rate), activity level

INSERT INTO results (molecule, reading) VALUES
  ('CCS(=O)(=O)n1c(-n2ccc(OCC(F)(F)C(F)(F)F)n2)nc2ccccc21 [Compound 2-38]', 'D or higher'),
  ('CCS(=O)(=O)n1c(-n2cc(CCc3ccc(OC)cc3)c(C(F)(F)F)n2)nc2ccccc21 [Compound 2-6]', 'D or higher'),
  ('CCS(=O)(=O)n1c(-n2cc(CCc3ccccc3)cn2)nc2ccccc21 [Compound 2-3]', 'D or higher'),
  ('CCS(=O)(=O)n1c(-n2cc(C(F)(C(F)(F)F)C(F)(F)F)cn2)nc2ccccc21 [Compound 2-10]', 'D or higher');
